The values you see were collected from patent US20230365675A1.

Recorded FACS binding data by entry
target: Mutant CD33-GFP M17 (F21Y) on 293FT cells (UniProt P20138); assay: FACS, mutant CD33-GFP on 293FT cells
Sequence (P20138 18-364 F21Y): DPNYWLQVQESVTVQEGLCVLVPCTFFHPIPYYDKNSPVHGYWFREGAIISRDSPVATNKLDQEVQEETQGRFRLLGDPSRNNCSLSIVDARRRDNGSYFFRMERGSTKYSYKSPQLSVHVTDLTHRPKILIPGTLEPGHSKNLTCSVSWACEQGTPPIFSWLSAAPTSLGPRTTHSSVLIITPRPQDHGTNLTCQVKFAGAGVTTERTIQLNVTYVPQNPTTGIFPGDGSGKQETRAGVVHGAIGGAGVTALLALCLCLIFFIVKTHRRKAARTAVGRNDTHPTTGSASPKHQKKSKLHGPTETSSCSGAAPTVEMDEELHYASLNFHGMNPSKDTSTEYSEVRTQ
Answer with a number only.

A selection of reference data follows.
>  <binder>
sdCD33_2 (VHH) VHH: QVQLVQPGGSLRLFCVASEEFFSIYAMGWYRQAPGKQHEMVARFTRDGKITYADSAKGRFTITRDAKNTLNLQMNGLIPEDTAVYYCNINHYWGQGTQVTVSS

>  <FACS binding data>
98.9

$$$$
>  <binder>
sdCD33_5 (VHH, sdAb from a naive llama phage library; also called 413; sdAb413) VHH: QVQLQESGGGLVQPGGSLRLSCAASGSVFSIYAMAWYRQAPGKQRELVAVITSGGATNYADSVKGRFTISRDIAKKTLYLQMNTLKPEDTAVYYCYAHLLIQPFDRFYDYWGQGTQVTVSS

>  <FACS binding data>
84.6

$$$$
>  <binder>
sdCD33_10 (VHH) VHH: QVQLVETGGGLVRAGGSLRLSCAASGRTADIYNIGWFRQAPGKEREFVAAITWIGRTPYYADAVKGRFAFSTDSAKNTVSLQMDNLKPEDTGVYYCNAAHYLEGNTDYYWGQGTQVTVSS

>  <FACS binding data>
94.1

$$$$

Q) I have this binder here, sdCD33_11 (VHH, sdAb from a naive llama phage library; also called 430; sdAb430) VHH: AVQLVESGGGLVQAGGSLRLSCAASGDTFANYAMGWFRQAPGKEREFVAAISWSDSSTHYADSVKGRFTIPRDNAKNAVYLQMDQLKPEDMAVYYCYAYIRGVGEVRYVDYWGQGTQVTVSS , and I need its recorded FACS binding data.
A) 96.1
